# SYSTEM TESTED: UniProt:Q12809
# Sequence (Q12809 whole entry): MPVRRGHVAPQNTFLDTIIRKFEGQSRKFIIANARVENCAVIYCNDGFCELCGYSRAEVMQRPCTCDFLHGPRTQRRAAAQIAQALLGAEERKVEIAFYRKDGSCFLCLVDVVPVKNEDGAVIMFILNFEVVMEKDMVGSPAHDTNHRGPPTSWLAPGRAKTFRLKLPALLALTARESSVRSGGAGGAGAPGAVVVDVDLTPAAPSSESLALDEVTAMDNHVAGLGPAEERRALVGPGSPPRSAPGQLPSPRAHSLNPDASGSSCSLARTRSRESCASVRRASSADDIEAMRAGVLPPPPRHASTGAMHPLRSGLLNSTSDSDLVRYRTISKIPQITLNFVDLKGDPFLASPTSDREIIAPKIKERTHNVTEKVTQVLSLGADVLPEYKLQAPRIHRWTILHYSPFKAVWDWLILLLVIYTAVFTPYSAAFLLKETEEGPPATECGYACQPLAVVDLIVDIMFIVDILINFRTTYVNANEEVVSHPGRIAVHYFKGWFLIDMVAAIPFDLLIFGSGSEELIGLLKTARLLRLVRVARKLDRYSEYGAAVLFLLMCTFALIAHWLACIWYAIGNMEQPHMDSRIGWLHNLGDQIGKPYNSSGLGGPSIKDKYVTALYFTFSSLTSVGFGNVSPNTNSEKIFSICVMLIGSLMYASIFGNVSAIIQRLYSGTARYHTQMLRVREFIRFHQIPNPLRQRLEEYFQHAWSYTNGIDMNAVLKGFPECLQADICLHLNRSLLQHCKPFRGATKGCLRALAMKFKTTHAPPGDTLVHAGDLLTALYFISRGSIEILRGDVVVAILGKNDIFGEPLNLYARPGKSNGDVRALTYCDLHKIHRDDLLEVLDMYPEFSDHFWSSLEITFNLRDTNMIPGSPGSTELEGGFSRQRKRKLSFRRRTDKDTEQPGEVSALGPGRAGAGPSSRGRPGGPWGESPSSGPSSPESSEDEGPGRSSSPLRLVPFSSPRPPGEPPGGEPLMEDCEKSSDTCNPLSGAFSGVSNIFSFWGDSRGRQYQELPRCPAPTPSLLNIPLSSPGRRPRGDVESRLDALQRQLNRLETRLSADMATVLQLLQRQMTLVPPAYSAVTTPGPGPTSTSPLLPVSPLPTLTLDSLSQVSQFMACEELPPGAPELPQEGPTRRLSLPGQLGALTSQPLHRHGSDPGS
# EXPERIMENT DESCRIPTION: Inhibition test of the hERG potassium channel (automatic patch clamp, CHO-hERG cells)
# RUN CONDITIONS: QPatch whole-cell patch clamp, room temperature
pIC50: −log10 of the molar value.
RECORDED METRIC: pIC50

Q. Enter reported pIC50 observed with UniProt:Q12809 for C[C@]1(NC(=O)C(=O)c2c(Cl)c(C(=O)Nc3ccc(F)c(F)c3)c3n2CCC3)CC[C@H](CC(=O)O)CC1
A. < 4.40

More entries:
Q. Enter reported pIC50 observed with UniProt:Q12809 for C[C@]1(NC(=O)C(=O)c2c(Cl)c(C(=O)Nc3cc(F)c(F)c(F)c3)c3n2CCC3)CC[C@H](CC(=O)O)CC1
A. < 4.40

----------
# EXPERIMENT DESCRIPTION: Pharmacokinetic study in Balb/c mice by oral administration and intravenous injection
# Type: in vivo
# RUN CONDITIONS: mouse, plasma, 3 mg/kg; PO (3 mpk) vs IV (1 mg/kg), Balb/c female mice; read-out: Bioavailability F
Please respond with reported bioavailability for every item in the list.
Numbers only, in %.

Q. Looking for the measured bioavailability of C[C@]1(NC(=O)C(=O)c2c(Cl)c(C(=O)Nc3cc(F)c(F)c(F)c3)c3n2CCC3)CC[C@H](CC(=O)O)CC1 [Compound 25] , can you help?
A. 51

For the next question, use this compound.
Q. Looking for the measured bioavailability of C[C@]1(NC(=O)C(=O)c2c(Cl)c(C(=O)Nc3ccc(F)c(F)c3)c3n2CCC3)CC[C@H](CC(=O)O)CC1 [Compound 18] , can you help?
A. 271

----------
# System: HBV
# EXPERIMENT DESCRIPTION: qPCR test in the HBV in vitro test (HBV DNA in HepG2.2.15 cells)
# Format: cell-based
# RUN CONDITIONS: Hepatitis B virus, 192 h, HBV DNA in HepG2.2.15 culture medium, day 8, read-out: Half maximal inhibitory concentration (EC50) of HBV
RECORDED METRIC: EC50 (nM)
One number for each entry, in nM.

Completed entries (count: 3):
Q. Enter reported EC50 observed with HBV for CC(C)(CCC(=O)O)NC(=O)C(=O)c1c(Cl)c(C(=O)Nc2ccc(F)c(F)c2)c2n1CCC2 [Compound 16]
A. 41

Q. Please do the same for O=C(O)CC1CCC(NC(=O)C(=O)c2c(Cl)c(C(=O)Nc3cc(F)c(F)c(F)c3)c3n2CCC3)(C(F)(F)F)CC1 (stereo not shown) [Compound 28] as well.
A. 2

Q. Please do the same for CC1(NC(=O)C(=O)c2c(Cl)c(C(=O)Nc3ccc(F)c(F)c3)c3n2CCC3)CCOCC1 [Compound 2] as well.
A. 3

For the next question, use this molecule.
Q. Enter reported EC50 observed with HBV for CC1(NC(=O)C(=O)c2c(Cl)c(C(=O)Nc3ccc(F)c(F)c3)c3n2CCC3)CCN(CC(=O)O)CC1 [Compound 4]
A. 580

----------
Please respond with reported half-life at 1 μM for every item in the list.
# EXPERIMENT DESCRIPTION: Metabolic stability in liver microsomes
# Format: in vitro ADME
# RUN CONDITIONS: dog; Beagle dogs liver microsomes, 1 μM compound, 0.5 mg/mL

Q. Looking for the measured half-life at 1 μM of C[C@]1(NC(=O)C(=O)c2c(Cl)c(C(=O)Nc3cc(F)c(F)c(F)c3)c3n2CCC3)CC[C@H](CC(=O)O)CC1 , can you help?
A. > 2.42 h

More entries:
Q. Looking for the measured half-life at 1 μM of C[C@]1(NC(=O)C(=O)c2c(Cl)c(C(=O)Nc3ccc(F)c(F)c3)c3n2CCC3)CC[C@H](CC(=O)O)CC1 , can you help?
A. > 2.42 h
